src = patent US7030137B2

This listing pairs molecules with measured MIC.
- Tested on: M catarrhalis and H. influenzae
- EXPERIMENTAL PROTOCOL: MIC against some strains of gram negative pathogens
- Assay type: cell-based
- MEASUREMENT PARAMETERS: Haemophilus influenzae
Where a name gives a salt, the structure may show the parent alone.
VALUE KIND: MIC

> print(dat)
                                   molecule  value.kind         reported
1  Cc1c(CNCCCNc2nc3ccccc3[nH]2)sc(C(F)F)c1Br         MIC  0.13 to 8 µg/mL
2  C=C(F)c1sc(CNCCCNc2nc3cscc3[nH]2)c(C)c1Br         MIC  0.13 to 8 µg/mL
3  Cc1c(CNCCCNc2nc3nnccc3[nH]2)sc(C(F)(F)F)c1Br [Example 12, dihydrochloride]         MIC  0.13 to 8 µg/mL
4  C=C(F)c1sc(CNCCCNc2nc3nnccc3[nH]2)c(C)c1Br [Example 14, dihydrochloride]         MIC  0.13 to 8 µg/mL
5  C=Cc1sc(CNCCCNc2nc3nnccc3[nH]2)c(C)c1Br [Example 13, dihydrochloride]         MIC  0.13 to 8 µg/mL
6  C=C(F)c1sc(CNCCCNc2cc(=O)c3ccccc3[nH]2)c(C)c1Br         MIC  0.13 to 8 µg/mL
7  CC=Cc1c(CNCCCNc2cc(=O)c3ccccc3[nH]2)sc(CC)c1Br         MIC  0.13 to 8 µg/mL
8  Cc1c(CNCCCNc2nc3nnccc3[nH]2)sc(C2CC2)c1Br [Example 11, dihydrochloride]         MIC  0.13 to 8 µg/mL

----------
This listing pairs molecules with measured MIC.
- Test system: S. aureus, S. pneumoniae, and E. faecalis
- EXPERIMENTAL PROTOCOL: MIC against some strains of gram positive pathogens
- Type: cell-based
Counter-ions that a name gives are not always drawn.
VALUE KIND: MIC

> print(dat)
                                   molecule                              study.system  value.kind           reported
1  C#Cc1sc(CNCCCNc2nc3nnccc3[nH]2)c(C)c1Br [Example 15, dihydrochloride]  S. aureus, S. pneumoniae, and E. faecalis         MIC       1 to 2 µg/mL
2  Cc1c(CNCCCNc2cc(=O)c3ccccc3[nH]2)sc(C(F)(F)F)c1Br  S. aureus, S. pneumoniae, and E. faecalis         MIC  0.06 to 0.5 µg/mL
3  Cc1c(CNCCCNc2cc(=O)c3ccccc3[nH]2)sc(C2CC2)c1Br  S. aureus, S. pneumoniae, and E. faecalis         MIC  0.06 to 0.5 µg/mL
4  C=C(F)c1sc(CNCCCNc2cc(=O)c3ccccc3[nH]2)c(C)c1Br  S. aureus, S. pneumoniae, and E. faecalis         MIC  0.06 to 0.5 µg/mL
5  C=C(F)c1sc(CNCCCNc2nc3cscc3[nH]2)c(C)c1Br  S. aureus, S. pneumoniae, and E. faecalis         MIC  0.06 to 0.5 µg/mL
